System: DLD1
Assay Protocol: cell viability (CellTiter-Glo) relative to plate median (fraction of plate median); higher = more viable cells
Particulars: 5 µM; treatment time 24 h; reporter: 7TFP
Here the recorded cell viability is given for each entry.
Lab note: jot the number down without any unit.

Consider the following illustrative entries.
| Molecule | Experimental Result |
| --- | --- |
| CO[C@@]1(NC(=O)Cc2cccs2)C(=O)N2C(C(=O)O)=C(COC(N)=O)CS[C@@H]21 | 1.06 |
| O=C1CCc2cc(OCCCCc3nnnn3C3CCCCC3)ccc2N1 | 0.979 |
| FC(F)(F)C(Cl)Br (stereo not drawn) | 0.964 |
| CC(C)C[C@@H]1NC(=O)[C@H](C)NC1=O [cyclo(alanylleucyl)] | 0.998 |
| CC(=O)O[C@@H]1C[C@H]2C(C)(C)[C@H](O)C[C@H](O)[C@]2(C)[C@H]2CC[C@@]3(C)[C@H](c4ccoc4)OC(=O)[C@H]4O[C@]43[C@@]21C | 0.906 |

## Input Find the recorded cell viability belonging to CCN(CCCc1ccccc1)CCCc1ccccc1 and report it.
## Output 1

## Input Find the recorded cell viability belonging to CCC(=O)O[C@H]1[C@H](O[C@@H]2[C@@H](C)[C@H](O[C@H]3C[C@@](C)(OC)[C@@H](O)[C@H](C)O3)[C@@H](C)C(=O)O[C@H](CC)[C@@](C)(O)[C@H](O)[C@@H](C)C(=O)[C@H](C)C[C@@]2(C)O)O[C@H](C)C[C@@H]1N(C)C and report it.
## Output 0.989

---

System: HCT116
Assay Protocol: TCF/Wnt firefly luciferase reporter signal relative to plate median (fraction of plate median); higher = higher Wnt reporter signal
Particulars: 10 µM; treatment time 24 h; reporter: TCF4/Wnt
Assay Endpoint: TCF/Wnt firefly luciferase reporter signal
Lab note: jot the number down without any unit.

Consider the following illustrative entries.
| Compound | Experimental Result |
| --- | --- |
| COc1cc2/c(=N/c3ccc(Br)cc3F)nc[nH]c2cc1OCC1CCN(C)CC1 [Vandetanib (Zactima)] | 0.916 |
| Cc1[nH]nc2ccc(-c3cncc(OC[C@@H](N)Cc4ccccc4)c3)cc12 | 0.196 |
| CN1CCN(c2ccc3nc(-c4c(N)c5c(F)cccc5[nH]c4=O)[nH]c3c2)CC1 [Dovitinib (TKI-258)] | 0.97 |
| O=c1cc(N2CCOCC2)oc2c(-c3ccccc3)cccc12 | 1.62 |
| C[C@@H](Oc1cc(-c2cnn(C3CCNCC3)c2)cnc1N)c1c(Cl)ccc(F)c1Cl | 0.978 |

## Input Find the recorded TCF/Wnt firefly luciferase reporter signal belonging to O=C(Cc1ccc(-c2ccc(OCCN3CCOCC3)cc2)cn1)NCc1ccccc1 and report it.
## Output 0.171

---

Test system: DLD1
Assay Protocol: cell viability (CellTiter-Glo) relative to plate median (fraction of plate median); higher = more viable cells
Particulars: 10 µM; treatment time 24 h; reporter: 7TFP
Here the recorded cell viability is given for each entry.
Lab note: jot the number down without any unit.

Consider the following illustrative entries.
| Molecule | Assay Endpoint | Experimental Result |
| --- | --- | --- |
| COc1ccc2c3n(c(=NC(=O)c4cccnc4)nc2c1OC)CCN3 | cell viability | 1 |
| CCn1nnc2c(N3CCOCC3)nc(-c3ccc(NC(=O)Nc4ccc(C(=O)N5CCN(C)CC5)cc4)cc3)nc21 | cell viability | 1.21 |
| FC(F)c1nc2ccccc2n1-c1nc(N2CCOCC2)nc(N2CCOCC2)n1 | cell viability | 0.82 |
| Nc1ncnc2c1c(-c1cnc3[nH]ccc3c1)nn2C1CCCC1 | cell viability | 0.8 |
| CN1CCN(c2ccc3nc(-c4c(N)c5c(F)cccc5[nH]c4=O)[nH]c3c2)CC1 [Dovitinib Dilactic acid (TKI258 Dilactic acid)] | cell viability | 0.857 |

## Input Find the recorded cell viability belonging to COCC(=O)NC/C=C/c1ccc2ncnc(Nc3ccc(Oc4ccc(C)nc4)c(C)c3)c2c1 and report it.
## Output 0.964

## Input Find the recorded cell viability belonging to Cc1ncc(-c2ccnc(Nc3ccc(S(C)(=O)=O)cc3)n2)n1C(C)C and report it.
## Output 1.25

## Input Find the recorded cell viability belonging to CCCNC(=O)Nc1ccc(Oc2ncnc3cc(OC)c(OC)cc23)cc1Cl and report it.
## Output 1.15

## Input Find the recorded cell viability belonging to Cc1c(NC(=O)OC[C@@H]2COCCN2)cn2ncnc(Nc3ccc4c(cnn4Cc4cccc(F)c4)c3)c12 and report it.
## Output 1.04
